tested on: H3122; assay: cells; parameters: CellTiter-Glo viability of fusion-positive human cancer cell lines; details: Homo sapiens, NCI-H3122, 72 h; read-out: Brigatinib IC50
reported-endpoint: pIC50
// pIC50: -log10(molar conc.)

Prompt line: Reported pIC50 for H3122, given COc1cc(N2CCC(N3CCN(C)CC3)CC2)ccc1Nc1ncc(Cl)c(Nc2ccccc2P(C)(C)=O)n1 ?
Response line: 8.10

Reference for the values: paper PMC7904790
